For each of the compounds below, state its IC50.
target system: Casein kinase II (Homo sapiens, UniProt P19784+P67870+P68400)
Sequence (P67870 whole entry): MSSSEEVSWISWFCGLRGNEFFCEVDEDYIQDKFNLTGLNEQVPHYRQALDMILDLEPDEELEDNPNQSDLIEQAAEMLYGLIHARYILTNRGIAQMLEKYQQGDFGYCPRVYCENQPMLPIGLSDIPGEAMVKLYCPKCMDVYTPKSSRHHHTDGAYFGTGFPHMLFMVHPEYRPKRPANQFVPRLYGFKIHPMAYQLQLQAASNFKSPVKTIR
Sequence (P68400 whole entry): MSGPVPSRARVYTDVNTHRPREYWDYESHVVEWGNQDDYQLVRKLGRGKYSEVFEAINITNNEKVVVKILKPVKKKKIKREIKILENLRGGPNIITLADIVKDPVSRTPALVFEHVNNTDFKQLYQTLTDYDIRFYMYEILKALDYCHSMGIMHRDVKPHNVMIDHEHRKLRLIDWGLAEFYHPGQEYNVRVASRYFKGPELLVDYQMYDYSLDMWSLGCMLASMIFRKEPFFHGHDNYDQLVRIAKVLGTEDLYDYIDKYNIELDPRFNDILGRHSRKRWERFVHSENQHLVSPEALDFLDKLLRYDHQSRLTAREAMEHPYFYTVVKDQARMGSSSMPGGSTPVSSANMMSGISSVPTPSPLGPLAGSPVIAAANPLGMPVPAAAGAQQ
Sequence (P19784 whole entry): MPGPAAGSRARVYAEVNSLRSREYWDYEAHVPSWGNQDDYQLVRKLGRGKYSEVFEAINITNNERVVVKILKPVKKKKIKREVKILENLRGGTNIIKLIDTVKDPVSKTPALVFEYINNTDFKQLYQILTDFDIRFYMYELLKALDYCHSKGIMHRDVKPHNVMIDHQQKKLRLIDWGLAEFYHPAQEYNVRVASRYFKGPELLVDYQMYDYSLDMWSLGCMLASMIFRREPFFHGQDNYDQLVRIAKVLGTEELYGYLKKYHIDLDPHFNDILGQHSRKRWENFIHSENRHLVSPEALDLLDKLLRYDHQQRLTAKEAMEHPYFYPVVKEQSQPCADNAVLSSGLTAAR
protocol notes: Inhibition of recombinant human CK2 activity assessed as [gamma-32P]ATP incorporation into substrate peptide after 20 mins in presence of 50 uM ATP
Give bare numbers, in µM.

CC1CCc2c(sc3ncnc(SCC(=O)O)c23)C1 (stereo not drawn): 1.78

Dear colleague, could you send me IC50 for each of the items below? Thanks.
1. Cc1nc(SCCC(=O)O)c2c3c(sc2n1)CCCC3
2. Cc1sc2ncnc(SCC(=O)O)c2c1C
3. Cc1sc2ncnc(SCc3cccc(C(=O)O)c3)c2c1C
4. O=C(O)CCSc1ncnc2scc(-c3ccc(Cl)cc3)c12

[15.8, 17.8, 17.8, 0.175]

Dear colleague, could you send me IC50 for each of the items below? Thanks.
1. O=C(O)CSc1ncnc2scc(-c3ccccc3)c12
2. CC1CCc2c(sc3ncnc(SC(C)C(=O)O)c23)C1 (stereo not drawn)
3. CCOc1ccc(-c2csc3ncnc(SCCC(=O)O)c23)cc1
4. O=C(O)CSc1ncnc2sc(-c3ccccc3)cc12
5. CC(Sc1ncnc2scc(-c3ccccc3)c12)C(=O)O (stereo not drawn)

[30, 20, 0.125, 1.25, 23]

====

protocol notes: Competitive inhibition of recombinant human CK2 activity by Lineweaver-Burk plot analysis
assay readout: Ki (nM)
Answers are plain numbers, in nM.

Need Ki of Cc1ccc(-c2csc3ncnc(SCCC(=O)O)c23)cc1 , thanks.
40

====

target system: Casein kinase II (Homo sapiens, UniProt P19784+P67870+P68400)
protocol notes: Inhibition of recombinant human CK2 activity assessed as [gamma-32P]ATP incorporation into substrate peptide after 20 mins in presence of 50 uM ATP
For each of the compounds below, state its IC50.

CCC(Sc1ncnc2sc3c(c12)CCCC3)C(=O)O (stereo not drawn): > 33 µM

Dear colleague, could you send me IC50 for each of the items below? Thanks.
1. Cc1sc2ncnc(SC(C)C(=O)O)c2c1C (stereo not drawn)
2. CCC(Sc1ncnc2scc(-c3ccc(C)cc3)c12)C(=O)O (stereo not drawn)

> 33 µM
> 33 µM

This collection of values is drawn from ChEMBL document CHEMBL1687878.
